Entry source: ChEMBL document CHEMBL1156575

Consider the following compounds; for each one, report its permeability.
# Assay Method Text: Membrane permeability assessed as passive transport after 4 hrs by PAMPA
Where a SMILES comes first, the peptide text is derived from it. [ ]: non-standard residue; d: D form. NMeW = CN[C@@H](Cc1c[nH]c2ccccc12)C(=O)O; 2Nal = N[C@@H](Cc1ccc2ccccc2c1)C(=O)O; Dopa = N[C@@H](Cc1ccc(O)c(O)c1)C(=O)O; NMehPhe = CN[C@@H](CCc1ccccc1)C(=O)O; NMeF = CN[C@@H](Cc1ccccc1)C(=O)O; Tic = O=C(O)[C@@H]1Cc2ccccc2CN1; Phg = N[C@H](C(=O)O)c1ccccc1
The figure you give is taken to be in %; do not add the unit.

Query :: Find the recorded permeability belonging to N[C@@H](Cc1ccc(O)c(O)c1)C(=O)O [LEVODOPA] and report it.
Result :: 0

Query :: Find the recorded permeability belonging to CC(=O)N(C)[C@@H](Cc1c[nH]c2ccccc12)C(=O)N(C)[C@@H](Cc1ccccc1)C(=O)N(C)[C@@H](Cc1ccccc1)C(=O)N(C)[C@@H](Cc1ccccc1)C(N)=O (Ac-[NMeW][NMeF][NMeF][NMeF]-NH2) and report it.
Result :: 2.9

Query :: Find the recorded permeability belonging to CN(C(=O)[C@H](Cc1ccc2ccccc2c1)NC(=O)[C@@H](N)Cc1ccc(O)c(O)c1)[C@@H](Cc1ccccc1)C(=O)N(C)[C@@H](Cc1ccccc1)C(=O)N(C)[C@@H](Cc1ccccc1)C(N)=O (H-[Dopa][2Nal][NMeF][NMeF][NMeF]-NH2) and report it.
Result :: 0.7

Query :: Find the recorded permeability belonging to CC(=O)N(C)[C@@H](Cc1ccccc1)C(=O)N(C)[C@@H](Cc1ccccc1)C(=O)N(C)[C@@H](Cc1ccccc1)C(=O)N(C)[C@@H](Cc1ccccc1)C(=O)O (Ac-[NMeF][NMeF][NMeF][NMeF]-OH) and report it.
Result :: 1.9

Query :: Find the recorded permeability belonging to CC(C)NCC(O)COc1cccc2ccccc12 (stereo not given) [PROPRANOLOL] and report it.
Result :: 13.5

Query :: Find the recorded permeability belonging to CC(=O)N(C)[C@@H](CCc1ccccc1)C(=O)N(C)[C@@H](Cc1ccccc1)C(=O)N(C)[C@@H](Cc1ccccc1)C(=O)N(C)[C@@H](Cc1ccccc1)C(N)=O (Ac-[NMehPhe][NMeF][NMeF][NMeF]-NH2) and report it.
Result :: 3.7

Query :: Find the recorded permeability belonging to CN(C(=O)[C@@H](N)Cc1ccc(O)c(O)c1)[C@@H](Cc1ccccc1)C(=O)N(C)[C@@H](Cc1ccccc1)C(=O)N(C)[C@@H](Cc1ccccc1)C(=O)N(C)[C@@H](Cc1ccccc1)C(N)=O (H-[Dopa][NMeF][NMeF][NMeF][NMeF]-NH2) and report it.
Result :: 2.4

Query :: Find the recorded permeability belonging to CC(=O)N1Cc2ccccc2C[C@H]1C(=O)N(C)[C@@H](Cc1ccccc1)C(=O)N(C)[C@@H](Cc1ccccc1)C(=O)N(C)[C@@H](Cc1ccccc1)C(N)=O (Ac-[Tic][NMeF][NMeF][NMeF]-NH2) and report it.
Result :: 4.3

Query :: Find the recorded permeability belonging to CC(=O)N[C@H](C(=O)N(C)[C@@H](Cc1ccccc1)C(=O)N(C)[C@@H](Cc1ccccc1)C(=O)N(C)[C@@H](Cc1ccccc1)C(N)=O)c1ccccc1 (Ac-[Phg][NMeF][NMeF][NMeF]-NH2) and report it.
Result :: 0

Query :: Find the recorded permeability belonging to CN(C(=O)[C@@H]1Cc2ccccc2CN1)[C@@H](Cc1ccccc1)C(=O)N(C)[C@@H](Cc1ccccc1)C(=O)N(C)[C@@H](Cc1ccccc1)C(N)=O (H-[Tic][NMeF][NMeF][NMeF]-NH2) and report it.
Result :: 4.6
